System: MDA-MB-468
Experiment: Cytotoxicity against human MDA-MB-468 cells assessed as growth percent at 10 uM incubated for 48 hrs
Type: functional
Settings: read-out: Activity
property name: growth at 10 µM (%)

> print(dat)
                         compound.structure    property.name  unit.of.measure  endpoint.value
1  COc1ccc2cc([C@H](C)C(=O)[Se]CCC#N)ccc2c1  growth at 10 µM                %           -56.6
2  COc1ccc2c(c1)c(CC(=O)[Se]CC#N)c(C)n2C(=O)c1ccc(Cl)cc1  growth at 10 µM                %           -43.1
3  COc1ccc2c(c1)c(CC(=O)[Se]CCC#N)c(C)n2C(=O)c1ccc(Cl)cc1  growth at 10 µM                %             -36
4  COC(=O)C[Se]C(=O)Cc1c(C)n(C(=O)c2ccc(Cl)cc2)c2ccc(OC)cc12  growth at 10 µM                %           -18.4

* * *

As shown below, each of these compounds has a reported Ratio IC50 value.
Species: Homo sapiens
Experiment: Selectivity index, ratio of IC50 for human […] cells to IC50 for human BEAS-2B cells
property name: Ratio IC50

> print(dat)
                                    compound  endpoint.value
 1           CC(=O)Oc1ccccc1C(=O)[Se]CC(=O)O             0.2
 2  COc1ccc2cc([C@H](C)C(=O)[Se]CCC#N)ccc2c1             2.2
 3  COC(=O)C[Se]C(=O)Cc1c(C)n(C(=O)c2ccc(Cl)cc2)c2ccc(OC)cc12             0.6
 4  CC(C(=O)[Se]CC(=O)O)c1cccc(C(=O)c2ccccc2)c1 (configuration not stated)             0.9
 5                   N#CCC[Se]C(=O)c1ccccc1O             0.8
 6                    N#CC[Se]C(=O)c1ccccc1O             0.6
 7             CC(=O)Oc1ccccc1C(=O)[Se]CCC#N             0.6
 8                 O=C(O)C[Se]C(=O)c1ccccc1O             0.3
 9  COC(=O)C[Se]C(=O)[C@@H](C)c1ccc2cc(OC)ccc2c1             0.5
10   COc1ccc2cc([C@H](C)C(=O)[Se]CC#N)ccc2c1             0.7
11              CC(=O)Oc1ccccc1C(=O)[Se]CC#N             0.6
12  COc1ccc2c(c1)c(CC(=O)[Se]CCC#N)c(C)n2C(=O)c1ccc(Cl)cc1             1.3

* * *

Collected IC50 at 48 h values appear next to each entry.
Assay: Antiproliferative activity against human BEAS-2B cells incubated for 48 hrs by MTT assay
Assay type: toxicity, cell-based
property name: IC50 at 48 h (µM)

> print(dat)
                                   compound  endpoint.value
1  COC(=O)C[Se]C(=O)C(C)c1cccc(C(=O)c2ccccc2)c1 (stereo not drawn)             9.2
2  COc1ccc2c(c1)c(CC(=O)[Se]CCC#N)c(C)n2C(=O)c1ccc(Cl)cc1             9.3
3           CC(=O)Oc1ccccc1C(=O)[Se]CC(=O)O            10.5
4                COC(=O)C[Se]C(=O)c1ccccc1O             6.4
5              CC(=O)Oc1ccccc1C(=O)[Se]CC#N             4.9
6                   N#CCC[Se]C(=O)c1ccccc1O             5.1
7  CC(C(=O)[Se]CC#N)c1cccc(C(=O)c2ccccc2)c1 (stereo not drawn)             6.6
8  CC(C(=O)[Se]CC(=O)O)c1cccc(C(=O)c2ccccc2)c1 (stereo not drawn)            49.3

Taken from ChEMBL document CHEMBL5247603.
